target.or.test.system: T1, human IL-17A/F heterodimer (human, UniProt Q16552 24-155; Q96PD4 31-163, limits assumed)
T1 construct: bought, made in E. coli (R&D Systems 5194-IL/CF); also called hIL-17A/F; hIL17A/F
T1 sequence (Q16552 24-155 limits assumed, chain 1 of 2): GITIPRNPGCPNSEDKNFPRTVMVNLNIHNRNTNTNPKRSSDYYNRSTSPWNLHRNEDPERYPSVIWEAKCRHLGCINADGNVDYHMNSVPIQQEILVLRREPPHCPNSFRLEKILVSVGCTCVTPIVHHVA
T1 sequence (Q96PD4 31-163 limits assumed, chain 2 of 2): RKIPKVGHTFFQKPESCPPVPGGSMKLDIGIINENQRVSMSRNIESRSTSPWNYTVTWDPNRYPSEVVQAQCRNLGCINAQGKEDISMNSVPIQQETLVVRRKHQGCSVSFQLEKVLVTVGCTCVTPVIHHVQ
test.description: SPR (Biacore) off-rate
quantity.kind: koff (s⁻¹)
Write the value in s⁻¹ as a bare number.

IL17MS3051 (VHH, variant of IL17MS13B03; Kabat numbering) VHH: EVQLVESGGGSVQAGDSLRLSCAASGRAFSINWFGWFRQTPGKEREFVAGIRWSDAYTEYANSVKGRFTISRDNAKNTVDLQMDSLKPEDTAVYYCVLDLSTVRYWGQGTQVTVSS :: 0.000396
IL17MS3048 (VHH, variant of IL17MS13B03; Kabat numbering) VHH: EVQLVESGGGSVQPGDSLRLSCAASGRANSINWFGWFRQTPGKEREFVAGIRWSDAYTEYANSVKGRFTISRDNSKNTVDLQMNSLRPEDTAVYYCVLDLSTVRYWGQGTLVTVSS :: 0.000665
IL17MS3045 (VHH, variant of IL17MS13B03; Kabat numbering) VHH: EVQLVESGGGSVQPGDSLRLSCAASGRANSINWFGWFRQAPGKEREFVAGIRWSDAYTEYANSVKGRFTISRDNSKNTVDLQMDSLRPEDTAVYYCVLDLSTVRYWGQGTLVTVSS :: 0.000616
IL17MS3052 (VHH, variant of IL17MS13B03; Kabat numbering) VHH: EVQLVESGGGSVQAGDSLRLSCAASGRASSINWFGWFRQTPGKEREFVAGIRWSDAYTEYANSVKGRFTISRDNAKNTVDLQMDSLKPEDTAVYYCVLDLSTVRYWGQGTQVTVSS :: 0.000518
IL17MS3046 (VHH, variant of IL17MS13B03; Kabat numbering) VHH: EVQLVESGGGSVQPGDSLRLSCAASGRANSINWFGWFRQTPGKEREFVAGIRWSDAYTEYAASVKGRFTISRDNSKNTVDLQMDSLRPEDTAVYYCVLDLSTVRYWGQGTLVTVSS :: 0.000515
IL17MS3053 (VHH, variant of IL17MS13B03; Kabat numbering) VHH: EVQLVESGGGSVQAGDSLRLSCAASGRANTINWFGWFRQTPGKEREFVAGIRWSDAYTEYANSVKGRFTISRDNAKNTVDLQMDSLKPEDTAVYYCVLDLSTVRYWGQGTQVTVSS :: 0.00052

**Q:** For the binder shown here, IL17MS3050 (VHH, variant of IL17MS13B03; Kabat numbering) VHH: EVQLVESGGGSVQPGGSLRLSCAASGRANSINWFGWFRQTPGKEREFVAGIRWSDAYTEYANSVKGRFTISRDNSKNTVDLQMDSLRPEDTAVYYCVLDLSTVRYWGQGTLVTVSS , give the reported koff.
**A:** 0.000575

**Q:** # query: koff of entry IL17MS3049 (VHH, variant of IL17MS13B03; Kabat numbering) VHH: EVQLVESGGGSVQPGDSLRLSCAASGRANSINWFGWFRQAPGKEREFVAGIRWSDAYTEYANSVKGRFTISRDNSKNTVYLQMDSLRPEDTAVYYCVLDLSTVRYWGQGTLVTVSS
**A:** 0.000248
